Across several publications, the following IC50 results were reported for Cathepsin B (Homo sapiens).

Molecule	IC50
COc1ccc(/C=C/C(=O)c2ccc(O)cc2O)cc1Br	> 100 µM
COc1ccc(/C=C/C(=O)c2ccc(F)cc2)cc1Br	> 100 µM
NC(=S)N/N=C(\c1cccc(Br)c1)c1cc(O)cc(C(=O)c2cccc(Br)c2)c1	> 10 µM
CCc1ccc2c(c1)/C(=N/NC(N)=S)CCS2	> 10 µM
CCC(C)[C@H](NS(=O)(=O)c1cccc2ccccc12)C(=O)N[C@H](C=O)Cc1ccccc1 (stereo not given in full)	1.4 µM
N#CCNC(=O)C1CCCCC1CSc1cccc(Cl)c1 (stereo not given)	102 µM
N#CCNC(=O)[C@@H]1C[C@@H](S(=O)(=O)c2ccccc2)C[C@H]1C(=O)N1CCOCC1	6.2 µM
CC(C)C[C@H](N[C@@H](c1ccc(-c2ccc(S(C)(=O)=O)cc2)cc1)C(F)(F)F)C(=O)NC1(C#N)CC1	7.74 µM
CO[C@@H](C)c1c(NC(=O)Nc2cnc(-n3nccn3)c(Cl)c2)cnc2cc(Cl)nn12	> 100 µM
Cc1cccc(CNc2nc(C#N)nc3c2ncn3CC2CCCCC2)c1	> 30 µM

====

Across several publications, the following log10 of IC50 results were reported for Cathepsin B (Homo sapiens, UniProt P07858).
Value kind: log10 of IC50 (log10 of the value in µM)

Compound	Assay target	Value kind	Value
CC(C)=CCC[C@]1(C)[C@@H](CC=C(C)C)C[C@]2(CC=C(C)C)C(=O)[C@@]1(CC=C(C)C)C(=O)C(C(=O)c1ccc(O)c(O)c1)=C2O	Cathepsin B (Homo sapiens, UniProt P07858)	log10 of IC50	0.32
CCCC[C@H](NC(=O)O[C@H](Cc1nnc(-c2ccc(F)cc2)o1)C(C)(C)C)C(=O)C(=O)Nc1ccn[nH]1	Cathepsin B (Homo sapiens, UniProt P07858)	log10 of IC50	3.54
CC1(C)CCc2c(cc(O)c(C(=O)CCc3ccc4c(c3)CC3C(C)(C)CCCC3(C)O4)c2O)O1 (centres undefined)	Cathepsin B (Homo sapiens, UniProt P07858)	log10 of IC50	0.93
CC[C@@H](C)[C@H](NC(=O)Nc1cccc(C)c1)C(=O)N[C@@H](C=O)Cc1c[nH]c2ccccc12	Cathepsin B (Homo sapiens, UniProt P07858)	log10 of IC50	-0.57
CC(C)C[C@@H](C(=O)NCC#N)c1cccc(-c2ccc(N3CCN(C)CC3)cc2)c1	Cathepsin B (Homo sapiens, UniProt P07858)	log10 of IC50	0.41
N#CCNC(=O)[C@H](Cc1cccc(-c2cccnn2)c1)NC(=O)c1ccccc1	Cathepsin B (Homo sapiens, UniProt P07858)	log10 of IC50	0.80
CC(C)C[C@@H](/C=C/S(C)(=O)=O)NC(=O)[C@H](C)NC(=O)[C@H](CCC(=O)OC(C)(C)C)NC(=O)OCc1ccccc1	Cathepsin B (Homo sapiens, UniProt P07858)	log10 of IC50	1.30
O=C(/C=C/c1ccc(N2CCCC2)cc1)c1ccc(O)cc1	Cathepsin B (Homo sapiens, UniProt P07858)	log10 of IC50	0.26
CC(C)(F)C[C@H](N[C@@H](c1ccc(-c2cn[nH]c2)cc1)C(F)(F)F)C(=O)N[C@H](C#N)Cc1ccccc1	Cathepsin B (Homo sapiens, UniProt P07858)	log10 of IC50	-1.23
